Source listed as patent US20260262643A1.

System: green foxtail
Assay: Test C preemergence
Type: in vivo, Setaria viridis
Details: Preemergence, 125 g ai/ha; 0 to 100 scale, 0 no effect, 100 complete control
property_measured: Plant response rating, Foxtail, Green

# molecule, Plant response rating, Foxtail, Green
rows = [
    ("CCOC[C@H]1CN(C(=O)c2cc(-n3cnc(C(C)C)n3)ccc2C)c2cccc(Cl)c2O1 [Compound 340]", 100),
    ("CC(C)c1ncn(-c2ccc(OS(C)(=O)=O)c(C(=O)N3C[C@H](C)Oc4c(Cl)cccc43)c2)n1 [Compound 338]", 90),
    ("CCOCC1CN(C(=O)c2cc(-n3cnc(CC)n3)ccc2OC)c2cccc(Cl)c2O1 (stereo not shown) [Compound 378]", 90),
]

Proceeding to the next molecule to report its Plant response rating, Foxtail, Green.
Ask | Which Plant response rating, Foxtail, Green is reported for this molecule? CCOC(=O)c1ncn(-c2ccc(C)c(C(=O)N3C[C@H](C)Oc4c(Cl)cccc43)c2)n1 [Compound 342]
Reply | 40

====

Tested on: barnyardgrass
Assay: Test D flooded paddy test
Type: in vivo, Echinochloa crus-galli
Conditions: 250 g ai/ha, applied to paddy water, visual rating after 13 to 14 days, scale 0 to 100 (0 no effect, 100 complete control)
Assign 1 to entries whose Plant response rating, Barnyardgrass (Flood) meets or exceeds 20; assign -1 to the rest.

Ask | Could you verify whether the entry Cc1ccc(-n2cnc(C(C)(F)F)n2)cc1C(=O)N1C[C@H](C)Oc2c(Cl)cccc21 shows Plant response rating, Barnyardgrass (Flood) of no less than 20?
Reply | -1

Ask | Please answer likewise for CCOCC1CN(C(=O)c2cc(-n3cnc(C4CCC4)n3)ccc2OC)c2cccc(Cl)c2O1 (centres unmarked)
Reply | -1

Ask | Please answer likewise for CCc1ccc(-n2cnc(C(C)C)n2)cc1C(=O)N1C[C@H](C)Oc2c(C)cccc21
Reply | 1

====

As shown below, each of these compounds has a reported Plant response rating, Ryegrass, Italian value.
System: ryegrass, Italian
Assay: Test C postemergence
Assay type: in vivo, Lolium multiflorum
Details: Postemergence, 500 g ai/ha, 10 days, visual 0 to 100 scale (0 no effect, 100 complete control)
Give your answer as a number; write no unit.

Recorded results for 2 compounds are shown here.
# molecule, Plant response rating, Ryegrass, Italian
records = [
    ("COc1ccc(-n2cncn2)cc1C(=O)N1C[C@H](C)Oc2ccccc21", 100),
    ("COc1c(F)cc(-n2cnc(C(C)C)n2)cc1C(=O)N1C[C@H](C)Oc2c(Cl)cccc21", 90),
]

Proceeding to the next compound to report its Plant response rating, Ryegrass, Italian.
Ask | Query for ryegrass, Italian: what Plant response rating, Ryegrass, Italian does the record show for Cc1cc(-n2cnc(C(C)C)n2)cc(C(=O)N2C[C@H](C)Oc3c(Cl)cccc32)c1C ?
Reply | 50

====

System: wheat
Assay: Test C preemergence
Format: in vivo, Triticum aestivum
Conditions: Test C, preemergence, 125 g ai/ha; 0 to 100 scale (0 no effect, 100 complete control)
Assign label 1 to entries whose Wheat plant response rating meets or exceeds 10; assign label 0 to the rest.

Use these answered entries as a reference point.
# compound, system_name, label
measured = [
    ("COc1c(F)cc(-n2cnc(C(C)C)n2)cc1C(=O)N1C[C@H](C)Oc2c(Cl)cccc21", "wheat", "label 1"),
    ("CSCc1ncn(-c2ccc(C)c(C(=O)N3C[C@H](C)Oc4c(Cl)cccc43)c2)n1", "wheat", "label 1"),
    ("Cc1ccc(-n2cnc(C(C)C)n2)cc1C(=O)N1CC(C(F)(F)F)Oc2c(Cl)cccc21 (single isomer, unassigned)", "wheat", "label 1"),
    ("Cc1ccc(-n2cnc(C3(C)COC3)n2)cc1C(=O)N1C[C@H](C)Oc2c(Cl)cccc21", "wheat", "label 1"),
    ("CCc1ncn(-c2ccc(C)c(C(=O)N3CC(C(F)(F)F)Oc4c(Cl)cccc43)c2)n1 (single isomer, unassigned)", "wheat", "label 1"),
    ("COC[C@H]1CN(C(=O)c2cc(-n3cnc(C4CC4)n3)ccc2C)c2cccc(Cl)c2O1", "wheat", "label 1"),
    ("CC(C)c1ncn(-c2cccc(C(=O)N3CC(C(F)(F)F)Oc4c(Cl)cccc43)c2)n1 (single isomer, unassigned)", "wheat", "label 0"),
    ("Cc1ccc(-n2cnc(C3(C)CC3)n2)cc1C(=O)N1C[C@H](C)Oc2c(Cl)cccc21", "wheat", "label 0"),
]

Ask | Could you verify whether the entry CCc1ncn(-c2ccc(OC)c(C(=O)N3C[C@H](COC)Oc4c(Cl)cccc43)c2)n1 shows Wheat plant response rating of no less than 10?
Reply | label 1

Ask | Please answer likewise for CC(C)n1cnc(-c2cccc(C(=O)N3C[C@H](C)Oc4c(Cl)cccc43)c2)n1
Reply | label 0

Ask | Please answer likewise for COc1ncn(-c2cccc(C(=O)N3C[C@H](C)Oc4c(Cl)cccc43)c2)n1
Reply | label 0

Ask | Please answer likewise for COc1ccc(-n2cnc(C(C)C)n2)cc1C(=O)N1C[C@H](C)Oc2c(F)cccc21
Reply | label 1

Ask | Please answer likewise for CCOCc1ncn(-c2ccc(C)c(C(=O)N3C[C@H](C)Oc4c(Cl)cccc43)c2)n1
Reply | label 0

Ask | Please answer likewise for Cc1cccc2c1O[C@@H](C)CN2C(=O)c1cccc(-n2nccn2)c1
Reply | label 0

Ask | Please answer likewise for CCC(O)(CC)c1ncn(-c2ccc(C)c(C(=O)N3C[C@H](C)Oc4c(Cl)cccc43)c2)n1
Reply | label 0

Ask | Please answer likewise for COc1ccc(-n2cnc(C(C)C)n2)cc1C(=O)N1C[C@H](C)Oc2c(C)cccc21
Reply | label 1
